# Measurement Target: binding of His-XIAP(BIR2)-avi fusion protein to GST-RIPK2 fusion protein (RIPK2/XIAP) (Homo sapiens, UniProt O43353)
# Construct: made in house; host or cells: baculovirus infected Sf9 cells
# Sequence (O43353 1-310 limits assumed): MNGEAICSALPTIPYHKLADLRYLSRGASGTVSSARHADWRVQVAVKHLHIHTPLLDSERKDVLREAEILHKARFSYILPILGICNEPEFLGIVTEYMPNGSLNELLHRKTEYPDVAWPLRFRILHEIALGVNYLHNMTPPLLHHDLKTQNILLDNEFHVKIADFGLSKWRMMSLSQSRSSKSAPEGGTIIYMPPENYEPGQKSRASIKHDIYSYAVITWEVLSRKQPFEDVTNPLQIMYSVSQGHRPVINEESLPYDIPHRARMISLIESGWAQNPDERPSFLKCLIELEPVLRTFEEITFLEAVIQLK
# Assay Summary: RIPK2-XIAP binding competition PPI assay (TR-FRET)
# Protocol Conditions: RIPK2/XIAP binding competition PPI assay, Amax; read-out: PPI Amax bin
Emax values for the molecules below.

Molecule: COc1cc2ncc(-c3ccc(N)nc3F)n2cc1S(=O)(=O)C1CC1 [Example 66]
Emax: > 80%
//
Molecule: CC(C)(C)S(=O)(=O)c1cn2c(-c3cnc4[nH]cc(Cl)c4c3)cnc2cc1OCCO [Example 219]
Emax: > 80%
//
Molecule: CC(C)(C)S(=O)(=O)c1cc2c(-c3cc(F)c(N)nc3F)cnn2cc1OCCO [Example 14]
Emax: > 80%
//
Molecule: COc1cc2ncc(-c3cc(F)c(OC)c(NS(=O)(=O)c4ccccc4)c3)n2cc1S(=O)(=O)C(C)(C)C [Example 281]
Emax: > 80%
//
Molecule: COc1cc2ncc(-c3ccc(NC(C)=O)nc3)n2cc1S(=O)(=O)C(C)(C)C [Example 8]
Emax: < 30%
//
Molecule: CCS(=O)(=O)Nc1cc(-c2cnc3cc(OC)c(C(=O)N4CCOCC4)cn23)cc(F)c1OC [Example 190]
Emax: 55 to 80%
//
Molecule: CC(C)(N)COc1cc2ncc(-c3cc(Cl)c(N)nc3F)n2cc1S(=O)(=O)C(C)(C)C [Example 241]
Emax: > 80%
//
Molecule: OCCCNc1cc(-c2cnc3ccc(C(F)(F)F)cn23)cc(F)n1 [Example 5]
Emax: < 30%
//
Molecule: CC(C)(C)S(=O)(=O)c1cn2c(-c3cc(F)c(N)nc3F)cnc2cc1OCC(CO)C(F)(F)F (stereo not shown) [Example 57]
Emax: > 80%
//
Molecule: C[C@H](O)CCOc1cc2ncc(-c3cc(F)c(N)nc3F)n2cc1S(=O)(=O)C(C)(C)C [Example 34]
Emax: > 80%
//
Molecule: COc1cc2ncc(-c3cc(F)c(OC)c(NS(=O)(=O)c4cnn(CCO)c4)c3)n2cc1S(=O)(=O)C(C)(C)C [Example 227]
Emax: > 80%
//
Molecule: CC(C)(C)S(=O)(=O)c1cn2c(-c3cc4cc[nH]c4nc3F)cnc2cc1OCCO [Example 52]
Emax: > 80%
//
Molecule: COc1cc2nc(N)c(-c3cc(F)c(N)nc3F)n2cc1S(=O)(=O)C(C)(C)C [Example 40]
Emax: 55 to 80%
//
Molecule: COc1cc2ncc(-c3cc(F)c(N)nc3F)n2cc1S(=O)(=O)C(C)(C)Cn1cccn1 [Example 65]
Emax: > 80%
//
Molecule: COc1cc2ncc(-c3cc(F)c(OC)c(NS(=O)(=O)c4cnn(C)c4)c3)n2cc1C1(F)CCN(C)CC1 [Example 234]
Emax: > 80%
//
Molecule: CC(C)(C)S(=O)(=O)c1cn2c(-c3cc(F)c(N)nc3F)cnc2cc1OCC1(O)CC1 [Example 177]
Emax: > 80%

###

# IC50 annotations
# Measurement Target: GST-RIPK2 fusion protein (human RIPK2, amino acids 1-310) (Homo sapiens, UniProt O43353)
# Construct: made in house; host or cells: baculovirus infected Sf9 cells
# Sequence (O43353 1-310): as the sequence (O43353 1-310 limits assumed) above
# Assay Summary: RIPK2 binding competition assay (TR-FRET, Tracer 199 displacement)
# Protocol Conditions: 10 nM Tracer 199, 1 nM GST-RIPK2, read-out: RIPK2 IC50
# Description: The ability of selected compounds of Formula (I) to inhibit the binding of an Alexa647-labelled ATP-competitive kinase inhibitor to a GST-RIPK2 fusion protein was quantified employing the TR-FRET-based RIPK2 binding competition assay as described in the following paragraphs. […] Table A1 below lists IC50 values of selected compounds of Formula (I) measured in the RIPK2 binding competition assay.

Compound: COCC(C)(C)S(=O)(=O)c1cn2c(-c3cc(F)c(N)nc3F)cnc2cc1OC
Measurement Target: GST-RIPK2 fusion protein (human RIPK2, amino acids 1-310) (Homo sapiens, UniProt O43353)
IC50: > 20 nM

Compound: CCCS(=O)(=O)Nc1cc(-c2cnc3cc(OC)c(S(=O)(=O)N4CCOCC4)cn23)cc(F)c1OC
Measurement Target: GST-RIPK2 fusion protein (human RIPK2, amino acids 1-310) (Homo sapiens, UniProt O43353)
IC50: 1 to 2.5 nM

Compound: CC(C)(C)S(=O)(=O)c1cn2c(-c3cc(F)c(N)nc3F)cnc2cc1OC[C@H]1C[C@@H](O)C1
Measurement Target: GST-RIPK2 fusion protein (human RIPK2, amino acids 1-310) (Homo sapiens, UniProt O43353)
IC50: 1 to 2.5 nM

Compound: C[C@@H](O)COc1cc2ncc(-c3cc(F)c(N)nc3F)n2cc1S(=O)(=O)C(C)(C)C
Measurement Target: GST-RIPK2 fusion protein (human RIPK2, amino acids 1-310) (Homo sapiens, UniProt O43353)
IC50: 2.5 to 20 nM

Compound: COc1cc2ncc(-c3cc(NS(=O)(=O)c4cnn(C)c4)c(OC)c(OC)c3)n2cc1S(=O)(=O)C(C)(C)C
Measurement Target: GST-RIPK2 fusion protein (human RIPK2, amino acids 1-310) (Homo sapiens, UniProt O43353)
IC50: 1 to 2.5 nM

Compound: CC(C)(C)S(=O)(=O)c1cc2c(-c3cc(Cl)c(N)nc3F)cnn2cc1OCCOP(=O)(O)O
Measurement Target: GST-RIPK2 fusion protein (human RIPK2, amino acids 1-310) (Homo sapiens, UniProt O43353)
IC50: 2.5 to 20 nM

Compound: COc1cc2ncc(-c3cccc(NS(=O)(=O)C4CC4)c3)n2cc1S(=O)(=O)C(C)(C)C
Measurement Target: GST-RIPK2 fusion protein (human RIPK2, amino acids 1-310) (Homo sapiens, UniProt O43353)
IC50: 2.5 to 20 nM

Compound: CCCS(=O)(=O)Nc1cc(-c2cnc3cc(OC)c(S(=O)(=O)C(C)(C)CO)cn23)cc(OC)c1OC
Measurement Target: GST-RIPK2 fusion protein (human RIPK2, amino acids 1-310) (Homo sapiens, UniProt O43353)
IC50: < 1 nM

Compound: COc1cc2ncc(-c3cc(F)c(OC)c(NC(=O)Cc4ccn(C)n4)c3)n2cc1S(=O)(=O)C(C)(C)C
Measurement Target: GST-RIPK2 fusion protein (human RIPK2, amino acids 1-310) (Homo sapiens, UniProt O43353)
IC50: 2.5 to 20 nM

Compound: CC(C)(C)S(=O)(=O)c1cn2c(-c3cc(F)c(N)nc3F)cnc2cc1OCC(F)(F)CN
Measurement Target: GST-RIPK2 fusion protein (human RIPK2, amino acids 1-310) (Homo sapiens, UniProt O43353)
IC50: 1 to 2.5 nM

Compound: CC(C)(C)S(=O)(=O)c1cc2c(-c3cc4cc[nH]c4nc3F)cnn2cc1OCCO
Measurement Target: GST-RIPK2 fusion protein (human RIPK2, amino acids 1-310) (Homo sapiens, UniProt O43353)
IC50: < 1 nM

Compound: CC(C)(C)S(=O)(=O)c1cn2c(-c3cc(F)c(N)nc3F)cnc2cc1OC[C@H]1C[C@H](O)C1
Measurement Target: GST-RIPK2 fusion protein (human RIPK2, amino acids 1-310) (Homo sapiens, UniProt O43353)
IC50: < 1 nM

Compound: CC(C)(C)S(=O)(=O)c1cn2c(-c3cnc4c(c3)C3(CC3)CN4)cnc2cc1OCCO
Measurement Target: GST-RIPK2 fusion protein (human RIPK2, amino acids 1-310) (Homo sapiens, UniProt O43353)
IC50: > 20 nM

Compound: COc1cc2ncc(-c3cnn4c(C)c(C)ccc34)n2cc1S(=O)(=O)C(C)(C)C
Measurement Target: GST-RIPK2 fusion protein (human RIPK2, amino acids 1-310) (Homo sapiens, UniProt O43353)
IC50: > 20 nM

Compound: CCS(=O)(=O)Nc1cc(-c2cnc3cc(OC)c(C(=O)N4CCC(O)CC4)cn23)cc(F)c1OC
Measurement Target: GST-RIPK2 fusion protein (human RIPK2, amino acids 1-310) (Homo sapiens, UniProt O43353)
IC50: 2.5 to 20 nM

Compound: COc1cc2ncc(-c3cc(F)c(N)nc3F)n2cc1C1(OC)CCOCC1
Measurement Target: GST-RIPK2 fusion protein (human RIPK2, amino acids 1-310) (Homo sapiens, UniProt O43353)
IC50: > 20 nM

Compound: COc1c(F)cc(-c2cnn3cc(OCCO)c(S(=O)(=O)C(C)(C)C)cc23)cc1NS(=O)(=O)c1cnn(C)c1
Measurement Target: GST-RIPK2 fusion protein (human RIPK2, amino acids 1-310) (Homo sapiens, UniProt O43353)
IC50: < 1 nM

Compound: COc1cc2ncc(-c3ccc4c(N)nccc4c3)n2cc1S(=O)(=O)C(C)(C)C
Measurement Target: GST-RIPK2 fusion protein (human RIPK2, amino acids 1-310) (Homo sapiens, UniProt O43353)
IC50: 2.5 to 20 nM

Compound: COc1cc2ncc(-c3cnn(-c4ccccc4)c3F)n2cc1S(=O)(=O)C(C)(C)C
Measurement Target: GST-RIPK2 fusion protein (human RIPK2, amino acids 1-310) (Homo sapiens, UniProt O43353)
IC50: > 20 nM

Compound: CC(C)(C)S(=O)(=O)c1cn2c(-c3cc(F)c(N)nc3F)cnc2cc1OCC(CO)C(F)(F)F (stereo not shown)
Measurement Target: GST-RIPK2 fusion protein (human RIPK2, amino acids 1-310) (Homo sapiens, UniProt O43353)
IC50: 2.5 to 20 nM

Compound: CC(C)(C)S(=O)(=O)c1cn2c(-c3cc(F)c(N)nc3F)cnc2cc1OCC(O)CO (stereo not shown)
Measurement Target: GST-RIPK2 fusion protein (human RIPK2, amino acids 1-310) (Homo sapiens, UniProt O43353)
IC50: 2.5 to 20 nM

Compound: COc1cc2ncc(-c3ccc4c(c3)nc(N)n4C)n2cc1S(=O)(=O)C(C)(C)C
Measurement Target: GST-RIPK2 fusion protein (human RIPK2, amino acids 1-310) (Homo sapiens, UniProt O43353)
IC50: > 20 nM

Compound: C[C@H](CO)COc1cc2ncc(-c3cc4cc[nH]c4nc3F)n2cc1S(=O)(=O)C(C)(C)C
Measurement Target: GST-RIPK2 fusion protein (human RIPK2, amino acids 1-310) (Homo sapiens, UniProt O43353)
IC50: < 1 nM

Compound: COc1cc2ncc(-c3ccc4nc(N)sc4c3)n2cc1S(=O)(=O)C(C)(C)C
Measurement Target: GST-RIPK2 fusion protein (human RIPK2, amino acids 1-310) (Homo sapiens, UniProt O43353)
IC50: 2.5 to 20 nM

Compound: COc1cc2ncc(-c3cnc4c(c3)NCCO4)n2cc1S(=O)(=O)C(C)(C)C
Measurement Target: GST-RIPK2 fusion protein (human RIPK2, amino acids 1-310) (Homo sapiens, UniProt O43353)
IC50: > 20 nM

Compound: C[C@H](CO)Oc1cc2ncc(-c3cc(Cl)c(N)nc3F)n2cc1S(=O)(=O)C(C)(C)C
Measurement Target: GST-RIPK2 fusion protein (human RIPK2, amino acids 1-310) (Homo sapiens, UniProt O43353)
IC50: 2.5 to 20 nM

Compound: C[C@@H](O)COc1cc2ncc(-c3cc(Cl)c(N)nc3F)n2cc1S(=O)(=O)C(C)(C)C
Measurement Target: GST-RIPK2 fusion protein (human RIPK2, amino acids 1-310) (Homo sapiens, UniProt O43353)
IC50: 1 to 2.5 nM

Compound: COc1cc2ncc(-c3cnc4c(c3)OCCN4C)n2cc1S(=O)(=O)C(C)(C)C
Measurement Target: GST-RIPK2 fusion protein (human RIPK2, amino acids 1-310) (Homo sapiens, UniProt O43353)
IC50: > 20 nM

Compound: COc1cn2ncc(-c3cc(F)c(OC)c(NS(=O)(=O)c4cnn(C)c4)c3)c2nc1OC
Measurement Target: GST-RIPK2 fusion protein (human RIPK2, amino acids 1-310) (Homo sapiens, UniProt O43353)
IC50: 2.5 to 20 nM

Compound: COc1cc2ncc(-c3ccc(N)nc3F)n2cc1S(=O)(=O)C1CC1
Measurement Target: GST-RIPK2 fusion protein (human RIPK2, amino acids 1-310) (Homo sapiens, UniProt O43353)
IC50: > 20 nM

Compound: C[C@H](O)CCOc1cc2ncc(-c3cc(F)c(N)nc3F)n2cc1S(=O)(=O)C(C)(C)C
Measurement Target: GST-RIPK2 fusion protein (human RIPK2, amino acids 1-310) (Homo sapiens, UniProt O43353)
IC50: 2.5 to 20 nM
